Cited source for all entries: patent US20260285924A1

- Tested on: A375 cells
- test description: A-to-I PepTile screen: fitness effect upon IFNα (PepTile abundance untreated vs treated)
- Assay type: cell-based, human
- assay setup: IFNα 6000 U/ml for 48 hours vs untreated
- From the text: FIGS. 12A-12D. A-to-I PepTile screen. (A) Composition of A-to-I PepTile linrary screen, and schematic description of the lentiviral expression vector. (B) Experimental workflow. A375 cells were transduced at low MOI, and then treated or not with IFNα for 48 hrs. RNA was extracted and Peptide_ADARreporter RNA species were amplified and sequenced by NGS. […] Red line is the mean A-to-I editing of all the 8088 peptides (>100 read counts) no treatment: 25.75% IFNα: 37.6%. […]

{"seq string": "MFKKRAVEITGAGPGASSVCNSAPGSGPSSPNSSHSTIAEN [HDAC5_74]", "Fitness Score IFNα": 0.29}
{"seq string": "MVYQAPLSLATVPHQALGRTQSSPAAPGGMKSPPDQPVKHL [HDAC5_161]", "Fitness Score IFNα": -0.12}
{"seq string": "MFPAVCAHSKKQGKQEAADAALRVLIGENEKAERMGFTEVT [ADAR_193]", "Fitness Score IFNα": 0.57}
{"seq string": "MVEKAVSSAAGPLGPGDAVRRVLECVATGTLLTDGPGLQDP [ZFR2_205]", "Fitness Score IFNα": 0.12}
{"seq string": "MKVPAVPVQWGNCGDTGTRSAGPLRRNYNFIAAVVEKVAPS [HTRA4_36]", "Fitness Score IFNα": 0.18}
{"seq string": "MKKNIAAERKEAKQEKEEADRYQRLKDEVVRAQVQLQLFKL [SMC1A_48]", "Fitness Score IFNα": 1.61}
{"seq string": "MKEHMDAINHDTKELEKMTNRQGMLLKKKEECMKKIRELGS [SMC3_228]", "Fitness Score IFNα": -3.54}
{"seq string": "MSELNQKRPQYIKAKENTSHKIKKLEAAKKSLQNAQKHYKK [SMC1A_73]", "Fitness Score IFNα": -0.76}
{"seq string": "MCLSSHFQELSIYQDQEQRILKFLEELGEGKATTAHDLSGK [ADAR_32]", "Fitness Score IFNα": -0.47}
{"seq string": "MSILARLDMQRGVHGRLMDNSTSVREAAVELLGRFVLCRPQ [NIPBL_452]", "Fitness Score IFNα": 2.31}
{"seq string": "MVGEYSNLEVNASWTKERWNQEFTKHQVLIMTCYVALNVLK [DICER1_31]", "Fitness Score IFNα": 0.94}
{"seq string": "MSESGNSARSSGISSQNSSTSDGDRSVSSQSSSSVSSQVTT [CDKN2AIP_47]", "Fitness Score IFNα": -1.31}
{"seq string": "MFSSRGINFRTRHLMQDLRMLMPHSKADTKMDRKDKLFVIN [BRIX1_17]", "Fitness Score IFNα": 1.21}
{"seq string": "METVSSNSSNNTGNSTTETSSTLEVRTQGPILTASGKNPVM [STRBP_120]", "Fitness Score IFNα": 0.07}
{"seq string": "MGFRGNSGGDYRGPSGGYRGSGGFQRGGGRGAYGTGYFGQG [DHX9_307]", "Fitness Score IFNα": 1.50}
{"seq string": "MIQDPAQAEAYTIYWLVAALAPLVAAPPRPSQGRLAGREWS [UBE2I_32]", "Fitness Score IFNα": -0.02}
{"seq string": "MVISTFKKRAVEITGAGPGASSVCNSAPGSGPSSPNSSHST [HDAC5_73]", "Fitness Score IFNα": 0.74}
{"seq string": "MVVLLCRQPCASQSSLKDINWDSSQWQPLIQDRCFLSWLVK [UPF1_52]", "Fitness Score IFNα": -0.80}
{"seq string": "MVSSAAGPLGPGDAVRRVLECVATGTLLTDGPGLQDPCERD [ZFR2_206]", "Fitness Score IFNα": 0.81}
{"seq string": "MSQVRAFRHTSTLAAMKLMTALVNVALNLSIHQDNTQRQYE [STAG1_54]", "Fitness Score IFNα": 0.28}
